Test system: SW-620 colon
Assay: NCI tumour cell line growth inhibition, 48 h
As shown below, each of these compounds has a reported GI50 value.

Given Smiles	GI50
C#COc1cccc(Nc2c(C#N)cnc3ncc(NC(=O)CCl)cc23)c1	19.8 µM
CCCCCOc1ccc(/C=N/Nc2cc(C)nc3ccc(Br)cc23)cc1	1.92 µM
N=C(N)c1ccc2nc(-c3cc(CC(=O)N[C@@H](CC(=O)O)C(=O)O)cc(-c4cc(S(N)(=O)=O)ccc4O)c3O)[nH]c2c1	> 100 µM
O=S(=O)(Nc1ccc(F)cc1F)c1ccc(-c2cnc(C3CC3)o2)cc1	0.395 µM
NC(=O)c1cc(S(=O)(=O)Nc2nnc(-c3ccccc3)c(-c3ccccc3)n2)c(SCc2ccccc2)cc1Cl	> 56.1 µM
O=C(Nc1ccc(F)cc1)c1cc(S(=O)(=O)Nc2nc3ccccc3o2)c(SCc2ccccc2)cc1Cl	17.6 µM

----------
As shown below, each of these compounds has a reported TGI value.
System: NCI/ADR-RES ovarian
Assay: NCI tumour cell line growth inhibition, 48 h
Reported Property: TGI (µM)

Compound	Qualifying Sign	Recorded Value
CN1C(=O)c2ccccc2OC12C=Cc1ccc(O)cc1O2 (stereo not given)	=	40.4
CCOP(=O)(COCCn1ncc(=O)[nH]c1=O)OCC	>	100
O=C1c2cccc3cccc(c23)C(=O)N1CCCNCCCNCCCCNCCCNCCCN1C(=O)c2cccc3cccc(c23)C1=O	=	46.8
COc1cc(N=Nc2cccc(S(=O)(=O)O)c2)ccc1N=Nc1ccc(/C=C/c2ccc(-n3on3-c3ccc(/C=C/c4ccc(N=Nc5ccc(N=Nc6cccc(S(=O)(=O)O)c6)cc5OC)cc4S(=O)(=O)O)c(S(=O)(=O)O)c3)cc2S(=O)(=O)O)c(S(=O)(=O)O)c1	>	100
CCn1c(=O)c2c(=O)c3c4c(oc3oc2c2ccccc21)C(=O)c1ccccc1C4=O	>	100

----------
Test system: SF-539 CNS
Test: NCI tumour cell line growth inhibition, 48 h

Molecule	TGI
c1ccc2c(c1)c1c(c3ccccc32)CN2CCCC2C1 (stereo not given)	10.7 µM
[N-]=[N+]=Nc1cc(=O)n2c3c(cccc13)CCC2	> 100 µM
CCOc1ccncc1[N+](=O)[O-]	> 100 µM
Cc1cc(NS(=O)(=O)c2ccc(Nc3c4ccccc4nc4c(C(=O)N5CCN(CCO)CC5)ccc(Cl)c34)cc2)no1	> 100 µM
COC(=O)[C@]12CCC(C)(C)C[C@H]1[C@H]1C(=O)C=C3[C@@]4(C)C=C(C#N)C(=O)C(C)(C)[C@@H]4CC[C@@]3(C)[C@]1(C)CC2	0.103 µM
COc1ccc(C2OC(N)=C(C#N)C3=C2CCCC3C)cc1OC (stereo not given)	> 100 µM
N#Cc1c(N/N=C/c2ccc(Cl)cc2Cl)nc(N)nc1N1CCCC1	> 100 µM
O=C1NC(=O)C(c2cccc([N+](=O)[O-])c2)=C1Nc1cc(Cl)c(O)c(Cl)c1	> 25 µM
CCOP(=O)(COCCn1ncc(=O)[nH]c1=O)OCC	> 100 µM
[N-]=[N+]=NC1C(O)C(CO)OC1n1ccc(=O)[nH]c1=O (stereo not given)	> 875 µM
OCCCNc1nccc(-c2c(-c3ccc(F)cc3)nn3cc(C(F)(F)F)ccc23)n1	> 25 µM
CCCCCCOc1ccc(Nc2c(O)c3c(c(O)c2Cl)C(=O)C=CC3=O)cc1	> 6.06 µM
O=C1NP23(OCCO2)Oc2ccccc2C3(C(F)(F)F)O1 (stereo not given)	> 100 µM
CSc1ccc2c(c1)C(=O)c1c-2n(CCCBr)c(=O)c2cc([N+](=O)[O-])ccc12	> 100 µM
CCOC(=O)/C=C(/C)Sc1cc(O)c2ccccc2c1O	11.7 µM

----------
Test system: SF-268 CNS
Experiment: NCI tumour cell line growth inhibition, 48 h

Compound	TGI
COc1ccc(/C(Cl)=C(\C=O)c2ccc(OC)c(OC)c2)cc1	> 100 µM
CN1C(=O)CSC1=S	> 100 µM
Cc1cc(NS(=O)(=O)c2ccc(Nc3c4ccccc4nc4c(C(=O)N5CCN(CCO)CC5)ccc(Cl)c34)cc2)no1	> 100 µM
Cc1cc2c(cc1C)C(=O)C1(C2)Cc2c(C)ccc(C)c2C1=O (stereo not drawn)	> 100 µM
CC(=O)N(CCc1ccccc1)C(C#N)c1ccccc1 (stereo not drawn)	> 100 µM
O=Cc1ccc2c(c1-c1c(C=O)ccc3c1OCO3)OCO2	> 100 µM
c1ccc2c(c1)c1c(c3ccccc32)CN2CCCC2C1 (stereo not drawn)	13.2 µM
O=S1(=O)Cc2ccc3c4c2-c2c(ccc5ccc(c-4c25)CS(=O)(=O)C3)C1	> 100 µM
Cn1cc(C2=C(c3cccc(Br)c3)C(=O)NC2=O)c2ccccc21	> 25 µM
COc1c[c]([Hg][O]C(C)=O)c(OC)c(NC(=O)CC(C)=O)[c]1[Hg][O]C(C)=O	18.9 µM
CNS(=O)(=O)NNS(=O)(=O)c1ccc(Br)cc1	> 100 µM
C#CC(C)(C)OC(=O)C(=[N+]=[N-])C(C)=O	> 10 µM
CN1CCc2c(sc3ncn(C)c(=N)c23)C1	> 100 µM
[N-]=[N+]=Nc1cc(=O)[nH]nc1-c1ccccc1	> 100 µM
CN(C)c1ccc(/C=N\NC(=O)Nc2cccc3ccccc23)cc1	71.8 µM
Cc1cc(C)c2c(c1)C/C(=C\c1ccccc1C(=O)O)C2=O	> 100 µM
COc1ccc(-c2nc(-c3cc4c(ccc5ccccc54)oc3=O)cs2)cc1	> 100 µM
CCC1CCc2c(c(=O)oc3c2cc(OC)c2cccc(OC)c23)C1 (stereo not drawn)	> 100 µM
O=C1NC(=NCCc2cccc(Cl)c2)S/C1=C\c1ccc2ncccc2c1	> 25 µM
COC(=O)[C@@H](C)C[C@H](Cc1ccccc1)NC(=O)c1csc([C@@H](C[C@H](C(C)C)N(C)C(=O)[C@@H](NC(=O)[C@H]2CCCCN2C)C2CCCCC2)OC(C)=O)n1	> 25 µM
CSc1ccc2c(c1)C(=O)c1c-2n(CCCBr)c(=O)c2cc([N+](=O)[O-])ccc12	> 100 µM
O=[N+]([O-])c1ccc(N2N=C(c3ccc(NCc4nc5ccccc5[nH]4)cc3)CC2c2ccco2)cc1 (stereo not drawn)	> 100 µM
O=C1C=CC(=O)c2c1ccc1c3ccccc3n(-c3cccc([N+](=O)[O-])c3)c21	> 10 µM
O=C(NCCCl)N(O)C(=O)Nc1ccccc1	> 100 µM
Cc1cccc(C)c1NC(=O)C(=O)C(C(=O)c1ccccc1-c1ccccc1)C1OC(=O)c2ccccc21 (stereo not drawn)	78.4 µM
C=C1C(=O)OC2CC(C)C3(O)CCC(=O)C3(C)CC12 (stereo not drawn)	64.5 µM
Cc1cc(C)c(C(=O)c2nnc3ccccc3c2N)c(C)c1	> 100 µM
CCCCCOc1ccc(/C=N/Nc2cc(C)nc3ccc(Br)cc23)cc1	3.73 µM
Cc1nn(C(=O)c2ccc(Cl)cc2)c2c1C(/C=C/c1ccccc1)SC(N)=N2 (stereo not drawn)	> 10 µM
CCC(C)C1NC(=O)C(NC(=O)c2c3[nH]c4c(C(=O)NC5C(=O)NC(C(C)CC)C(=O)N6CCCC6C(=O)N(C)CC(=O)N(C)C(C(C)C)C(=O)OC5C)ccc(C)c4oc-3c(C)c(=O)c2=O)C(C)OC(=O)C(C(C)C)N(C)C(=O)CN(C)C(=O)C2CCCN2C1=O (stereo not drawn)	97.4 µM
Cc1cc(C)c(C[C@H]2COC(=O)[C@]2(O)Cc2c(C)cc(C)cc2C)c(C)c1	30 µM
CC1C[C@]2(C)C(=NCCN)Nc3ccccc3[C@@H]2N(C)c2ccccc21 (stereo partly drawn)	30.4 µM
O=S(=O)(Nc1ccc(F)cc1F)c1ccc(-c2cnc(C3CC3)o2)cc1	> 70.4 µM
[N-]=[N+]=Nc1cc(=O)n2c3c(cccc13)CCC2	> 100 µM
O=C(N[C@@H](c1ccccc1)[C@@H](O)C(=O)OCc1ccc([N+](=O)[O-])cc1)c1ccccc1	> 100 µM
C/C(CC(=O)Nc1cccc(Cl)c1C)=N\NC(=O)c1ccncc1	> 100 µM
CCOC(=O)CO/N=C1/C(c2c(O)[nH]c3ccccc23)=Nc2ccccc21	> 100 µM
O=C1c2cccc3cccc(c23)C2NCCCN12 (stereo not drawn)	> 100 µM

----------
Tested on: SF-268 CNS
Assay: NCI tumour cell line growth inhibition, 48 h

Compound	Target Under Test	TGI
Cc1ccc(-c2n[nH]c(=O)n2/N=C\c2ccc([N+](=O)[O-])cc2)cc1	SF-268 CNS	> 100 µM
CC(C)N(CCn1c2c3ccccc3ccc2c2oc(=O)c3ccccc3c21)C(C)C	SF-268 CNS	> 100 µM
COc1ncc(-c2ccc3ncnc(Nc4cccc(Cl)c4)c3c2)cc1NS(=O)(=O)C1CC1	SF-268 CNS	> 100 µM
Cc1ccccc1N/C(=C(/C(Cl)=C(Cl)Cl)[N+](=O)[O-])n1nnc2ccccc21	SF-268 CNS	30.8 µM
O=C(O)CC(NC(=O)CP(=O)(O)O)C(=O)O (stereo not given)	SF-268 CNS	> 10000 µM
